// provenance: ChEMBL document CHEMBL5338707

Assay: AUC (0 to t) in rat at 50 mg/kg, ip measured at 0.25 to 24 hrs by LC-MS analysis
Format: ADME, organism-based
Parameters: dose 50 mg/kg, time upper 24 hrs, time lower 0.25 hrs, route ip
Conditions: in vivo
measured.quantity: AUC(0-t) (ng·h/mL)
# number only, unit ng·h/mL dropped from output

Consider the compound O=C1c2cc(F)ccc2N(c2cccc(F)c2)C2c3[nH]c4ccc(O)cc4c3CCN12 (configuration not stated) . State its measured AUC(0-t).
12300

***
Give a short answer stating reported AUC(0-t) for CC(=O)Oc1ccc2[nH]c3c(c2c1)CCN1C(=O)c2cc(F)ccc2N(c2cccc(F)c2)C31 (configuration not stated) .
17800
